- System Name: OGG1 (Homo sapiens (Human), UniProt O15527)
- Sequence (O15527 whole entry): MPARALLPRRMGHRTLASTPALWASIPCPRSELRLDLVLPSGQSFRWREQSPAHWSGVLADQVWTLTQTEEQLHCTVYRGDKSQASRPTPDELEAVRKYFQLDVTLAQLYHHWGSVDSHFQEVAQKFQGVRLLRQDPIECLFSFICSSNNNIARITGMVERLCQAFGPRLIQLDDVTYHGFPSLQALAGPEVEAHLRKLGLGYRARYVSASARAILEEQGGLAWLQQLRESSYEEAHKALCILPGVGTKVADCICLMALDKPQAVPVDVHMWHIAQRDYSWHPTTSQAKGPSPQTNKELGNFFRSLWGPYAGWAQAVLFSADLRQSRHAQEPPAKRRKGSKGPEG
- Assay Comment: OGG1 inhibitor assay with fluorogenic OGR1 probe (base excision, initial rates)
- Type: biochemical
- Condition Notes: 2 μM compound; ratio of initial rate slope (first 12 min) to no-compound control
Quantity Kind: Enzyme activity, % of control at 2 μM

O=C(C1CC1)N1CCCc2ccc(NS(=O)(=O)c3ccc(-c4ccc(C(F)(F)F)cc4)cc3)cc21 | 72 % of control
CSc1ccc(S(=O)(=O)Nc2ccc3c(c2)N(C(=O)C2CC2)CCC3)cc1 | 53 % of control
CCNc1ccc(S(=O)(=O)Nc2ccc3c(c2)N(C(=O)C2CC2)CCC3)cc1 | 58 % of control

Query: State the recorded Enzyme activity, % of control at 2 μM for this entry: CCOc1ccc(S(=O)(=O)Nc2ccc3c(c2)N(C(=O)CCOC)CCC3)cc1
Reply: 93 % of control

Query: State the recorded Enzyme activity, % of control at 2 μM for this entry: O=C(C1CC1)N1CCCc2ccc(NS(=O)(=O)c3ccc(Oc4ccccc4)cc3)cc21
Reply: 41 ± 2.0 % of control

Query: State the recorded Enzyme activity, % of control at 2 μM for this entry: CCOc1ccc(S(=O)(=O)Nc2cccc(NC(C)=O)c2)cc1
Reply: 96 % of control

Query: State the recorded Enzyme activity, % of control at 2 μM for this entry: CCOc1ccc(S(=O)(=O)N(O)c2ccc3c(c2)N(C(=O)C2CC2)CCC3)cc1
Reply: 79 % of control

Query: State the recorded Enzyme activity, % of control at 2 μM for this entry: NNC(=O)c1sc2cccc(Cl)c2c1Cl [Compound O8, reference compound]
Reply: 69 % of control

###

- System Name: OGG1 (Homo sapiens (Human), UniProt O15527)
- Assay Comment: OGG1 inhibitor assay with fluorogenic OGR1 probe (base excision, initial rates)
- Assay type: biochemical
- Condition Notes: 2 μM compound; ratio of initial rate slope (first 12 min) to no-compound control
Listed below: Enzyme activity, % of control at 2 μM values for each entry.

Illustrative cases are given below, each with its answer.
CCOc1ccc(S(=O)(=O)Nc2ccc3c(c2)N(C(=O)CC)CCC3)cc1 | 51 ± 1.4 % of control
O=C(C1CC1)N1CCCc2ccc(NS(=O)(=O)c3ccc(-n4cccn4)cc3)cc21 | 45 ± 1.3 % of control
CCOc1ccc(S(=O)(=O)Nc2ccc3c(c2)N(C(=O)CC)CC3)cc1 | 95 % of control
CCOc1ccc(S(=O)(=O)Nc2ccc3c(c2)N(CC2CC2)CCC3)cc1 | ≥100 % of control
CCOc1ccc(NC(=O)Nc2ccc3c(c2)N(C(=O)C2CC2)CCC3)cc1 | ≥100 % of control

Query: State the recorded Enzyme activity, % of control at 2 μM for this entry: CCOc1ccc(C(=O)Nc2ccc3c(c2)N(C(=O)C2CC2)CCC3)cc1
Reply: ≥100 % of control

Query: State the recorded Enzyme activity, % of control at 2 μM for this entry: CCOc1ccc(S(=O)(=O)Nc2ccc3c(c2)N(C(=O)C(C)C)CCC3)cc1
Reply: 96 % of control

Query: State the recorded Enzyme activity, % of control at 2 μM for this entry: CCOc1ccc(S(=O)(=O)Nc2ccc3c(c2)N(C(=O)C2CC2)CCC3)cc1
Reply: 41 ± 1.7 % of control
